# credit: PubChem BioAssay (EPA / NIEHS)

Read-out: Intercellular Adhesion Molecule 1 (ICAM1), ICAM1 (gene 3383)
MEASUREMENT NOTES: BSK_3C_ICAM1: BioMAP Diversity Plus: 3C Assay for Intercellular Adhesion Molecule 1 (ICAM1) Biomarker Activity (AID 2283003)
DETAILS: primary human endothelial cells (HUVEC); actives raise or lower the signal
The source made the active and inactive calls. How the source made its calls: active means hit-call score of the fitted dose curve at least 0.9, where 1 is the maximum; inactive means score below 0.9.
Would you mind answering with one of these outcomes? 1 (active), -1 (inactive)

Solved cases below.
CC(C)(C)CC(C)(C)c1ccc(O)cc1 : 1
CCOC(=O)/C=C(C)/C=C/C[C@@H](C)CCCC(C)C : 1
CC(C)c1ccc(CO)cc1 : -1

Query: Call for entry Cn1sc(Cl)cc1=O :
Reply: -1

Query: Would you mind telling me which call this test gave CC(C)CCCCCCOC(=O)c1ccccc1C(=O)OCCCCCCC(C)C ?
Reply: -1

Query: For CCC(=O)C(CC(C)N(C)C)(c1ccccc1)c1ccccc1 (stereo not drawn) , what call appears in the results of this test?
Reply: -1

* * *

Read-out: Glutathione S-transferase M3 (GSTM3), GSTM3 (gene 2947)
MEASUREMENT NOTES: LTEA_HepaRG_GSTM3: Life Technologies and Expression Analysis (LTEA) Assay for Glutathione S-transferase M3 (GSTM3) using HepaRG (AID 2283501)
DETAILS: mRNA level, 48 h; actives raise or lower the signal
Experimental: LTEA_HepaRG is a cell based, multiplexed-readout assay that uses HepaRG, a human liver cell line, with measurements taken at 48 hours after chemical dosing on a 96-well plate.LTEA_HepaRG_GSTM3 is one of 102 assay component(s) measured in the LTEA HepaRG cell culture assay. It is a marker of Oxidative Stress.Data from the assay component LTEA_HepaRG_GSTM3 was analyzed into 1 endpoint. […]
Active and inactive are the calls of the source. How the source made its calls: active means hit-call score of the fitted dose curve at least 0.9, where 1 is the maximum; inactive means score below 0.9.
Tick one outcome: T (active), F (inactive)

Worked set:
O=C(Nc1ccc2[nH]ccc2c1)c1cc2cc(F)ccc2n1Cc1cccc(F)c1 : F
Cn1sc(Cl)cc1=O : F
CC(C)(c1ccccc1)c1ccc(O)c(C(C)(C)c2ccccc2)c1 : F
O=[N+]([O-])c1ccc(O)c([N+](=O)[O-])c1 : T
CCC(=O)C(CC(C)N(C)C)(c1ccccc1)c1ccccc1 (configuration not stated) : T

Query: Call for entry ClC1(Cl)C2(Cl)C3(Cl)C4(Cl)C(Cl)(Cl)C5(Cl)C3(Cl)C1(Cl)C5(Cl)C24Cl (configuration not stated) :
Reply: F

Query: # lookup: test call for CC12CC1(C)C(=O)N(c1cc(Cl)cc(Cl)c1)C2=O (configuration not stated)
Reply: F

Query: Fill in: this test's call for O=C(O)C(F)(F)C(F)(F)C(F)(F)C(F)(F)C(F)(F)C(F)(F)F is ___
Reply: F

Query: Check the results log: what was the call for Oc1cccc2cccnc12 ?
Reply: F

Query: Look up the recorded call for C=C(C)C(=O)[O][Sn]([CH2]CCC)([CH2]CCC)[CH2]CCC in this test.
Reply: F

Query: Entry C[C@@H]1C[C@@H]([C@H](O)CC2CC(=O)NC(=O)C2)C(=O)[C@@H](C)C1 : call = ?
Reply: T

Query: Hello, I am checking results. What call was entered for CCCCCCCCc1ccc(O)cc1 ?
Reply: F

Query: Give the logged outcome of this assay for the following compound: ClCC(Cl)CCl
Reply: F

Query: Which outcome was entered for the compound CC(=O)[O][Hg][c]1ccccc1 in this test?
Reply: F

* * *

TESTED TARGET: human Neurokinin, NK2 Receptor, TACR2 (gene 6865) (UniProt P21452)
Sequence (P21452 whole entry, looked up): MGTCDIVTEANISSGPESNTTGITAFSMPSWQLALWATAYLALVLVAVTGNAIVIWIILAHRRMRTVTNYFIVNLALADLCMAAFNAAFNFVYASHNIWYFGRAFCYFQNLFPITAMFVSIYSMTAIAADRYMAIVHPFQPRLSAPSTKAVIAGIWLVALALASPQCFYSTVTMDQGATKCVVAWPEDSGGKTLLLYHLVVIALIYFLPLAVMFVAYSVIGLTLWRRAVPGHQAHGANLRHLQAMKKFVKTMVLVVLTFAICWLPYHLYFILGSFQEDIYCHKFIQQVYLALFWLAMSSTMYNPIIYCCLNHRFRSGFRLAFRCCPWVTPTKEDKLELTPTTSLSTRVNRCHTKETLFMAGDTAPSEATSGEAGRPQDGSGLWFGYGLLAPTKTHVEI
MEASUREMENT NOTES: NVS_GPCR_hNK2: NovaScreen (NVS) G Protein-Coupled Receptor Assay for human Neurokinin, NK2 Receptor (AID 2283278);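 further: actives reduce bound radioligand signal relative to DMSO baseline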
Inconclusive results are not listed. Calls of active or inactive are those of the source. Rule for the calls: active = hit-call score of the fitted dose curve at least 0.9, where 1 is the maximum; inconclusive = response in the unintended direction; inactive = score below 0.9.
A correct response names exactly one class from T for active, F for inactive

Query: Recorded test call requested for C=C(C)C(=O)[O][Sn]([CH2]CCC)([CH2]CCC)[CH2]CCC
Reply: T

Query: Fill in: this test's call for CC12CC1(C)C(=O)N(c1cc(Cl)cc(Cl)c1)C2=O (configuration not stated) is ___
Reply: F

Query: Look up the recorded call for COP(=S)(OC)Oc1ccc(Sc2ccc(OP(=S)(OC)OC)cc2)cc1 in this test.
Reply: F

Query: # lookup: test call for CC(C)(C)CC(C)(C)c1ccc(O)cc1
Reply: T

Query: Write down the call the test reported for this compound. Item: Nc1ncc([N+](=O)[O-])s1
Reply: F

Query: Would you mind telling me which call this test gave Oc1cccc2cccnc12 ?
Reply: T

Query: State the result this test recorded for CC(=O)[O][Hg][c]1ccccc1 .
Reply: T

* * *

Read-out: Cytochrome P450 4A22 (Homo sapiens) (UniProt Q5TCH4)
MEASUREMENT NOTES: LTEA_HepaRG_CYP4A22: Life Technologies and Expression Analysis (LTEA) Assay for Cytochrome P450 4A22 (CYP4A22) using HepaRG (AID 2283495)
DETAILS: mRNA level, 48 h; actives raise or lower the signal
Protocol: LTEA_HepaRG is a cell based, multiplexed-readout assay that uses HepaRG, a human liver cell line, with measurements taken at 48 hours after chemical dosing on a 96-well plate.LTEA_HepaRG_CYP4A22 is one of 102 assay component(s) measured in the LTEA HepaRG cell culture assay. It is a marker of NR mediated metabolism.Data from the assay component LTEA_HepaRG_CYP4A22 was analyzed into 1 endpoint. […]
The source made the active and inactive calls. How the source made its calls: active means hit-call score of the fitted dose curve at least 0.9, where 1 is the maximum; inactive means score below 0.9.
// classify into active, inactive

Consider the worked cases shown below.
Cc1ccccc1N : inactive
ClC1(Cl)C2(Cl)C3(Cl)C4(Cl)C(Cl)(Cl)C5(Cl)C3(Cl)C1(Cl)C5(Cl)C24Cl (configuration not stated) : inactive
C=CC(=O)OCCCCCC(C)C : inactive
Oc1cccc2cccnc12 : inactive
C[C@]12CCC(=O)C[C@@H]1CC[C@@H]1[C@@H]2CC[C@]2(C)[C@@H](O)CC[C@@H]12 : active

Query: Status in this test for O=C(O)C(F)(F)C(F)(F)C(F)(F)C(F)(F)C(F)(F)C(F)(F)F ?
Reply: active

Query: How did this test come out for CCC(=O)C(CC(C)N(C)C)(c1ccccc1)c1ccccc1 (configuration not stated) ?
Reply: inactive

Query: What is the recorded call for this compound in the test? NC(=O)O
Reply: inactive

Query: // outcome(item) with item = O=C(Nc1ccc2[nH]ccc2c1)c1cc2cc(F)ccc2n1Cc1cccc(F)c1
Reply: active

Query: Please let me know the test result on file for O=C1C2(Cl)C3(Cl)C4(Cl)C(Cl)(Cl)C5(Cl)C3(Cl)C1(Cl)C5(Cl)C24Cl (configuration not stated) .
Reply: active

Query: Recorded test call requested for CCOP(=S)(OCC)SCSP(=S)(OCC)OCC
Reply: active

Query: Per the assay record, what outcome was assigned to CC(C)(C)c1cc(O)ccc1O ?
Reply: inactive

* * *

Read-out: Plasminogen activator inhibitor-1 (PAI1), SERPINE1 (gene 5054)
MEASUREMENT NOTES: BSK_hDFCGF_PAI1: BioMAP Diversity Plus: hDFCGF Assay for Plasminogen activator inhibitor-1 (PAI1) Biomarker Activity (AID 2283066)
DETAILS: primary human foreskin fibroblasts; actives raise or lower the signal
Method: BSK_hDFCGF is a cell-based, multiplexed-readout assay that uses foreskin fibroblast, a human skin primary cell, with measurements taken at 24 hours after chemical dosing in a 96-well plate.BSK_hDFCGF_PAI1 is an assay component measured in the BSK_hDFCGF assay. It measures PAI-1 antibody related to regulation of gene expression using ELISA technology.Data from the assay component BSK_hDFCGF_PAI1 was analyzed into 1 assay endpoint. […]
Active and inactive are the calls of the source. How the source made its calls: active means hit-call score of the fitted dose curve at least 0.9, where 1 is the maximum; inactive means score below 0.9.
Outcome field: choose from true (active), false (inactive)

CC(=O)C(Cl)C(=O)N(C)C (stereo not drawn) : false

Query: Call for entry NC(=S)Nc1ccccc1 :
Reply: false

Query: Which outcome was entered for the molecule Cc1ccccc1N in this test?
Reply: false

Query: Record request — test call for CCC(C)(C)c1ccc(O)c(C(C)(C)CC)c1
Reply: true

Query: Short answer needed: outcome of this test for O=C(O)CCC(F)(C(F)(F)F)C(F)(F)F ?
Reply: false

Query: Hey, what did the test say about O=C1C2(Cl)C3(Cl)C4(Cl)C(Cl)(Cl)C5(Cl)C3(Cl)C1(Cl)C5(Cl)C24Cl (stereo not drawn) ?
Reply: true

* * *

MEASUREMENT NOTES: STM_H9_CystineISnorm_perc: Stemina devTOX quickPredict H9 human embryonic stem cell (hESC)-based Assay for Cystine (CYSS) Metabolite Biomarker, Normalized (AID 2283713)
Calls of active or inactive are those of the source. How the source made its calls: active means hit-call score of the fitted dose curve at least 0.9, where 1 is the maximum; inactive means score below 0.9.
Valid outcomes are listed here; reply with one: 1 = active, 0 = inactive

C[C@@H]1C[C@@H]([C@H](O)CC2CC(=O)NC(=O)C2)C(=O)[C@@H](C)C1 : 1
O=C(O)C(Cl)(Cl)Cl : 0
CC(C)(C)c1cc(O)ccc1O : 0
CCN1CCC2(CC1)COc1cc3c(cc12)N(C(=O)c1ccc(-c2ccc(-c4nnc(C)o4)cc2C)cc1)CC3 : 1

Here is the next item to consider.
Query: What is the recorded call for this compound in the test? O=C(Nc1ccc2[nH]ccc2c1)c1cc2cc(F)ccc2n1Cc1cccc(F)c1
Reply: 1
